Origin of values: PubChem BioAssay AID330

Recorded measurements of T/C, one per entry
system: P388 leukemia ip, CD2F1 mice, survival T/C; test: NCI In Vivo Anticancer Drug Screen. Data for tumor model P388 Leukemia (intraperitoneal) in CD2F1 (CDF1) mice; conditions: endpoint: median survival time; dose: 100.0 mg/kg/injection; schedule: Q04DX003 (ip); vehicle: Klucel (hydroxypropylcellulose) (HPC); higher = longer survival
Toxic doses and inconclusive results are not listed.

Reference set, count: 3
molecule | T/C
CC(=O)CC(C)(C)C(C#N)c1ccccc1 (stereo unspecified) | 99 % of control
CCOP(=O)(O)C1CCCC(C)[N-]1.CCOP(=O)(O)C1CCCC(C)[N-]1.CCOP(=O)(O)C1CCCC(C)[N-]1.[Cr+3] (stereo unspecified) | 100 % of control
O=c1n(-c2ccccc2)c(=O)n2n1C1C=CC2C23C=CC12CCCC3 (stereo unspecified) | 96 % of control

### Prompt Need T/C of OC(CCl)Cn1nc2ccc3ccccc3c2n1 (stereo unspecified) , thanks.
### Response 103 % of control

### Prompt Another molecule to look at: O=S(=O)(Cc1ccccc1)Oc1ccccc1
### Response 109 % of control

### Prompt Another: Cc1ccc(-n2nc(C)c3c(N)nc(N)nc32)c(Cl)c1
### Response 101 % of control

### Prompt Item: NC(=S)N/N=C/c1cn(-c2ccccc2[N+](=O)[O-])cn1
### Response 103 % of control

====

Tested on: P388 leukemia ip, CD2F1 mice, survival T/C
Test: NCI In Vivo Anticancer Drug Screen. Data for tumor model P388 Leukemia (intraperitoneal) in CD2F1 (CDF1) mice
Settings: endpoint: median survival time; dose: 100.0 mg/kg/injection; schedule: Q01DX009 (ip); vehicle: distilled water + Tween-80; higher = longer survival
Experimental: The antitumor activity of compounds was measured in mice bearing transplantable tumors. Survival or tumor size were measured and the results are expressed as the measurement made in the treated group (T) divided by the measurement made in the vehicle treated control group (C). The tumor model used in this assay is P388 Leukemia (intraperitoneal) in CD2F1 (CDF1) mice
Toxic doses and inconclusive results are not listed.
measurement label: T/C

Please review the following examples before continuing.
compound | T/C
CCOC(=O)c1ccc(NC(=O)Nc2nc3ccc(OC)cc3s2)cc1 | 91 % of control
COc1ccc2ccc(CCC(=O)O)cc2c1 | 99 % of control
COc1cc(OC)c(C(C)=O)c(O)c1C | 99 % of control
COc1ccc([N+](=O)[O-])c(C=O)c1OS(=O)(=O)c1ccc(C)c([N+](=O)[O-])c1 | 98 % of control
NC(=O)CCNC(=O)OCc1ccccc1 | 104 % of control

Query compound follows.
### Prompt Can you look up T/C on P388 leukemia ip, CD2F1 mice, survival T/C for COC(=O)C(Br)CCCC(Br)C(=O)OC (stereo unspecified) ?
### Response 103 % of control

====

tested on: P388 leukemia ip, CD2F1 mice, survival T/C; test: NCI In Vivo Anticancer Drug Screen. Data for tumor model P388 Leukemia (intraperitoneal) in CD2F1 (CDF1) mice; settings: endpoint: median survival time; dose: 200.0 mg/kg/injection; schedule: Q04DX003 (ip); vehicle: Klucel (hydroxypropylcellulose) (HPC); higher = longer survival
Inconclusive results and toxic doses are left out.
T/C values for the compounds below.

Worked examples, 3 compounds total:
compound | test target | observed result
CCOC(=O)c1c(C)c2c(n1C)CCC(C(=O)OCC)C2=O (centres undefined) | P388 leukemia ip, CD2F1 mice, survival T/C | 91 % of control
O=[N+]([O-])c1ccccc1C=Nc1ccc2nc(SCc3ccccc3)sc2c1 | P388 leukemia ip, CD2F1 mice, survival T/C | 95 % of control
CC(C)(C)P(O)(=S)c1ccccc1 (centres undefined) (tested in a mixture with another compound) | P388 leukemia ip, CD2F1 mice, survival T/C | 102 % of control

### Prompt Endpoint output: T/C of N=C(N)S(=O)(=O)c1ccccc1 . Value?
### Response 118 % of control
